Collected solubility kinetic at 4 h values appear next to each entry.
Test: Kinetic solubility (PBS pH 7.4; 4 hr)
Type: physicochemical
Conditions: free base (Table 19); read-out: Kinetic Solubility
measure: solubility kinetic at 4 h (µM)

compound | measure | reported-relation | readout-value
CNS(=O)(=O)Nc1cccc(Cc2c(CN(C)C)c3cc(F)c(OC(=O)N(C)C)cc3oc2=O)c1F [Compound 25] | solubility kinetic at 4 h | > | 80
CNS(=O)(=O)Nc1cccc(Cc2c(CN(C)C)c3cc(Cl)c(OC(=O)N(C)C)cc3oc2=O)c1F [Compound 24] | solubility kinetic at 4 h | = | 57
CNS(=O)(=O)Nc1cccc(Cc2c(CN(C)C)c3ccc(OC(=O)N(C)C)cc3oc2=O)c1F [Compound 9] | solubility kinetic at 4 h | > | 80
CCN(C)Cc1c(Cc2cccc(NS(=O)(=O)CC)c2F)c(=O)oc2cc(OC(=O)N(C)C)c(Cl)cc12 [Compound 166] | solubility kinetic at 4 h | = | 80
CCS(=O)(=O)Nc1cccc(Cc2c(CN(C)C)c3ccc(OC(=O)N(C)C)cc3oc2=O)c1F [Compound 120] | solubility kinetic at 4 h | > | 80

---

Collected CLint (mL/min/kg) values appear next to each entry.
System: balb/c mouse hepatocytes
Experiment: Hepatocyte stability, balb/c mouse
Format: in vitro ADME
Conditions: 2 μM, 0.5 million cells/ml

smiles-str | CLint (mL/min/kg)
CCS(=O)(=O)Nc1cccc(Cc2c(CN(C)C)c3ccc(OC(=O)N(C)C)cc3oc2=O)c1F | 66.3 mL/min/kg
CNS(=O)(=O)Nc1cccc(Cc2c(CN3CCNCC3)c3cc(F)c(OC(=O)N(C)C)cc3oc2=O)c1F | 69.7 mL/min/kg
CNS(=O)(=O)Nc1cccc(Cc2c(CN(C)C)c3ccc(OC(=O)N(C)C)cc3oc2=O)c1F | 59.7 mL/min/kg
CNS(=O)(=O)Nc1cccc(Cc2c(CN(C)C)c3cc(F)c(OC(=O)N(C)C)cc3oc2=O)c1F | 64.7 mL/min/kg
CNS(=O)(=O)Nc1nccc(Cc2c(CN(C)C)c3ccc(OC(=O)N(C)C)cc3oc2=O)c1F | 117 mL/min/kg
CCCS(=O)(=O)Nc1cccc(Cc2c(CN3CCNCC3)c3cc(Cl)c(OC(=O)N(C)C)cc3oc2=O)c1F | 127 mL/min/kg

---

Tested on: cynomolgus monkey hepatocytes
Assay: Hepatocyte stability, cynomolgus monkey
Assay type: in vitro ADME
Details: 2 μM, 0.5 million cells/ml
Structures can show the parent of a compound that is named as a salt.

compound | result-unit | % Remaining At T120
CNS(=O)(=O)Nc1cccc(Cc2c(CN(C)C)c3ccc(OC(=O)N(C)C)cc3oc2=O)c1F | % | 44.3
CNS(=O)(=O)Nc1cccc(Cc2c(CN3CCNCC3)c3ccc(OC(=O)N(C)C)cc3oc2=O)c1Cl [Compound 246, hydrochloride] | % | 81.4
CNS(=O)(=O)Nc1cccc(Cc2c(CN3CCNCC3)c3cc(F)c(OC(=O)N(C)C)cc3oc2=O)c1F | % | 78.5
CCCS(=O)(=O)Nc1cccc(Cc2c(CN3CCNCC3)c3cc(Cl)c(OC(=O)N(C)C)cc3oc2=O)c1F | % | 29.0
CNS(=O)(=O)Nc1cccc(Cc2c(CN(C)C)c3cc(F)c(OC(=O)N(C)C)cc3oc2=O)c1F | % | 80.4

---

Assay: Kinetic solubility (PBS pH 7.4; 4 hr)
Assay type: physicochemical
Conditions: PBS buffer, pH 7.4, aqueous buffer, kinetic from dmso stock; free base (Table 19); read-out: Kinetic Solubility
Where a name gives a salt, the structure may show the parent alone.
Collected solubility kinetic at 4 h values appear next to each entry.

compound | result-unit | reported-relation | solubility kinetic at 4 h
CNS(=O)(=O)Nc1cccc(Cc2c(CN(C)C)c3ccc(OC(=O)N(C)C)cc3oc2=O)c1Br [Compound 248] | µM | > | 80
CCS(=O)(=O)Nc1cccc(Cc2c(CN3CCNCC3)c3cc(Cl)c(OC(=O)N(C)C)cc3oc2=O)c1Cl [Compound 257, hydrochloride] | µM | > | 80
CCN(C)Cc1c(Cc2cccc(NS(=O)(=O)NC)c2F)c(=O)oc2cc(OC(=O)N(C)C)c(F)cc12 [Compound 238] | µM | = | 40
CCN(C)Cc1c(Cc2cccc(NS(=O)(=O)NC)c2Cl)c(=O)oc2cc(OC(=O)N(C)C)ccc12 [Compound 245] | µM | = | 28
CNS(=O)(=O)Nc1cccc(Cc2c(CN(C)CCF)c3ccc(OC(=O)N(C)C)cc3oc2=O)c1F [Compound 240] | µM | = | 67
CNS(=O)(=O)Nc1cccc(Cc2c(CN3CCNCC3)c3cc(Cl)c(OC(=O)N(C)C)cc3oc2=O)c1Cl [Compound 256, hydrochloride] | µM | > | 80
CNS(=O)(=O)Nc1cccc(Cc2c(CN(C)C)c3ccc(OC(=O)N(C)C)cc3oc2=O)c1Cl [Compound 274] | µM | = | 78

---

Test: Hepatocyte stability, wistar hannover rat
Assay type: in vitro ADME
Conditions: Wistar Hannover, rat, hepatocytes, 0.5 million cells/ml, read-out: CLint (mL/min/kg)
Counter-ions that a name gives are not always drawn.
Threshold 50 mL/min/kg. CLint scaled at 2 μM below it: true. CLint scaled at 2 μM at it or above: false.

compound | class
CCS(=O)(=O)Nc1cccc(Cc2c(CN3CCNCC3)c3cc(Cl)c(OC(=O)N(C)C)cc3oc2=O)c1Cl [Compound 257, hydrochloride] | true
CNS(=O)(=O)Nc1cccc(Cc2c(CN3CCNCC3)c3ccc(OC(=O)N(C)C)cc3oc2=O)c1Cl [Compound 246, hydrochloride] | true
CCN(C)Cc1c(Cc2cccc(NS(=O)(=O)NC)c2Cl)c(=O)oc2cc(OC(=O)N(C)C)ccc12 [Compound 245] | false
CCN(C)Cc1c(Cc2cccc(NS(=O)(=O)NC)c2F)c(=O)oc2cc(OC(=O)N(C)C)c(F)cc12 [Compound 238] | false
CNS(=O)(=O)Nc1cccc(Cc2c(CN3CCNCC3)c3cc(Cl)c(OC(=O)N(C)C)cc3oc2=O)c1Cl [Compound 256, hydrochloride] | true
CNS(=O)(=O)Nc1cccc(Cc2c(CN(C)C)c3ccc(OC(=O)N(C)C)cc3oc2=O)c1Cl [Compound 274] | true

---

Molecular target: CYP2C19 (Homo sapiens, UniProt P33261)
Sequence (P33261 whole entry): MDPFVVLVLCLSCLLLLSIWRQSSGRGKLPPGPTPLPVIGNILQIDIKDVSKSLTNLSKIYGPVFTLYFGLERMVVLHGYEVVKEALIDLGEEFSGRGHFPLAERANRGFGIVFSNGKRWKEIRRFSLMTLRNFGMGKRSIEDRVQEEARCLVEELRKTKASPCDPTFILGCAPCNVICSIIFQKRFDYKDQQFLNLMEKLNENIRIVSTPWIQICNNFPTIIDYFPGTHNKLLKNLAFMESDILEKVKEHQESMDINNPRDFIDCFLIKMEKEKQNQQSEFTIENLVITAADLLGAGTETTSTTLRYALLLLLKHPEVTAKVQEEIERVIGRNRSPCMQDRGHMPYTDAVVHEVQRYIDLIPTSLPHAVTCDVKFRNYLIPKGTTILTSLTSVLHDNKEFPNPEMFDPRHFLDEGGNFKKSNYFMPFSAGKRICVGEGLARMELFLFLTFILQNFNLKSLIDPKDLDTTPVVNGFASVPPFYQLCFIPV
Experiment: CYP450 panel inhibition in human liver microsomes, 2C19 (mephenytoin)
Conditions: 10 μM, substrate mephenytoin
Collected CYP-2C19 (Mephenytoin) mean percentage CYP inhibition values appear next to each entry.
measure: CYP-2C19 (Mephenytoin) mean percentage CYP inhibition

smiles-str | readout-value
CNS(=O)(=O)Nc1cccc(Cc2c(CN3CCNCC3)c3cc(F)c(OC(=O)N(C)C)cc3oc2=O)c1F | 20.6%
CNS(=O)(=O)Nc1cccc(Cc2c(CN(C)C)c3cc(F)c(OC(=O)N(C)C)cc3oc2=O)c1F | 26.5%
CNS(=O)(=O)Nc1cccc(Cc2c(CN(C)C)c3ccc(OC(=O)N(C)C)cc3oc2=O)c1F | 17.4%
CCS(=O)(=O)Nc1cccc(Cc2c(CN(C)C)c3ccc(OC(=O)N(C)C)cc3oc2=O)c1F | 14.2%
CNS(=O)(=O)Nc1nccc(Cc2c(CN(C)C)c3ccc(OC(=O)N(C)C)cc3oc2=O)c1F | 50.6%
CCCS(=O)(=O)Nc1cccc(Cc2c(CN3CCNCC3)c3cc(Cl)c(OC(=O)N(C)C)cc3oc2=O)c1F | 67.1%

---

Experiment: Caco-2 bidirectional permeability (absorption & efflux)
Details: human
Structures can show the parent of a compound that is named as a salt.
Cut-off 4 ×10⁻⁶ cm/s on Papp A→B at 2 h, 10 μM, inclusive. At or above means Met; below means Not met.

molecule | class
CNS(=O)(=O)Nc1cccc(Cc2c(CN3CCNCC3)c3ccc(OC(=O)N(C)C)cc3oc2=O)c1Cl [Compound 246, hydrochloride] | Met
CCN(C)Cc1c(Cc2cccc(NS(=O)(=O)NC)c2Cl)c(=O)oc2cc(OC(=O)N(C)C)ccc12 [Compound 245] | Met
CNS(=O)(=O)Nc1cccc(Cc2c(CN(C)C)c3ccc(OC(=O)N(C)C)cc3oc2=O)c1Cl [Compound 274] | Met
CCN(C)Cc1c(Cc2cccc(NS(=O)(=O)NC)c2F)c(=O)oc2cc(OC(=O)N(C)C)c(F)cc12 [Compound 238] | Met
CNS(=O)(=O)Nc1cccc(Cc2c(CN3CCNCC3)c3cc(Cl)c(OC(=O)N(C)C)cc3oc2=O)c1Cl [Compound 256, hydrochloride] | Not met

---

System: balb/c mouse hepatocytes
Test: Hepatocyte stability, balb/c mouse
Assay type: in vitro ADME
Settings: 2 μM, 0.5 million cells/ml
Counter-ions that a name gives are not always drawn.
measure: % Remaining At T120 (%)

compound | readout-value
CNS(=O)(=O)Nc1nccc(Cc2c(CN(C)C)c3ccc(OC(=O)N(C)C)cc3oc2=O)c1F [Compound 124] | 55.1
CNS(=O)(=O)Nc1cccc(Cc2c(CN(C)C)c3ccc(OC(=O)N(C)C)cc3oc2=O)c1Cl [Compound 274] | 64.3
CCCS(=O)(=O)Nc1cccc(Cc2c(CN3CCNCC3)c3cc(Cl)c(OC(=O)N(C)C)cc3oc2=O)c1F [Compound 167] | 52.5
CNS(=O)(=O)Nc1cccc(Cc2c(CN(C)C)c3ccc(OC(=O)N(C)C)cc3oc2=O)c1F [Compound 9] | 73.8
CCS(=O)(=O)Nc1cccc(Cc2c(CN(C)C)c3ccc(OC(=O)N(C)C)cc3oc2=O)c1F [Compound 120] | 71.4
CNS(=O)(=O)Nc1cccc(Cc2c(CN3CCNCC3)c3cc(F)c(OC(=O)N(C)C)cc3oc2=O)c1F [Compound 134] | 70.2
CNS(=O)(=O)Nc1cccc(Cc2c(CN3CCNCC3)c3cc(Cl)c(OC(=O)N(C)C)cc3oc2=O)c1Cl [Compound 256, hydrochloride] | 65.6
CCS(=O)(=O)Nc1cccc(Cc2c(CN3CCNCC3)c3cc(Cl)c(OC(=O)N(C)C)cc3oc2=O)c1Cl [Compound 257, hydrochloride] | 66.7
